- Method description: refractive index (Na D-line) (dimensionless); xn = mol fraction of the nth substance listed
- Setup conditions: 318.15 K; 103 kPa; Liquid; Standard Abbe refractometry; x2 = 0.75
Numbers after ± are expanded uncertainties.
Reported endpoint: refractive index

stdin: I am curious: what refractive index value has been reported for CCO[Si](C)(C)OCC [dimethyldiethoxysilane] + CO[Si](C)(OC)c1ccccc1 ?
stdout: 1.44527 ± 0.004

stdin: I am curious: what refractive index value has been reported for C=C[Si](OC)(OC)OC [trimethoxy(vinyl)silane] + CO[Si](C)(OC)c1ccccc1 ?
stdout: 1.44929 ± 0.004

stdin: I am curious: what refractive index value has been reported for CO[Si](C)(C)OC [dimethoxydimethylsilane] + CO[Si](C)(OC)c1ccccc1 ?
stdout: 1.44677 ± 0.004

stdin: I am curious: what refractive index value has been reported for C=C[Si](C)(OCC)OCC [methylvinyldiethoxysilane] + CO[Si](C)(OC)c1ccccc1 ?
stdout: 1.44847 ± 0.004

* * *

- Setup conditions: 298.15 K; 103 kPa; Liquid; Vibrating tube method
Tag: t if measured mass density is not below 900 kg/m3, f if it is.

stdin: Hello, I need to know if C=C[Si](OC)(OC)OC has measured mass density not below 900 kg/m3. Thanks!
stdout: t

stdin: Hello, I need to know if CO[Si](C)(C)OC has measured mass density not below 900 kg/m3. Thanks!
stdout: f

stdin: Hello, I need to know if C=C[Si](C)(OCC)OCC has measured mass density not below 900 kg/m3. Thanks!
stdout: f

stdin: Hello, I need to know if CO[Si](C)(OC)c1ccccc1 has measured mass density not below 900 kg/m3. Thanks!
stdout: t

stdin: Hello, I need to know if CCO[Si](C)(C)OCC has measured mass density not below 900 kg/m3. Thanks!
stdout: f

* * *

- Method description: refractive index (Na D-line) (dimensionless)
- Setup conditions: 308.15 K; 103 kPa; Liquid; Standard Abbe refractometry
Exercise: state measured refractive index for each of the compounds provided.
Keep the answer to the number alone.

stdin: I am curious: what refractive index value has been reported for C=C[Si](C)(OCC)OCC ?
stdout: 1.39249

stdin: I am curious: what refractive index value has been reported for C=C[Si](OC)(OC)OC ?
stdout: 1.38535

stdin: I am curious: what refractive index value has been reported for CCO[Si](C)(C)OCC ?
stdout: 1.37532

stdin: I am curious: what refractive index value has been reported for CO[Si](C)(OC)c1ccccc1 ?
stdout: 1.47293

stdin: I am curious: what refractive index value has been reported for CO[Si](C)(C)OC ?
stdout: 1.36297

* * *

Exercise: state measured mass density for each of the compounds provided.
- Setup conditions: 303.15 K; 103 kPa; Liquid; Vibrating tube method
Give the quantity in kg/m3, number only.

stdin: I am curious: what mass density value has been reported for C=C[Si](C)(OCC)OCC [methylvinyldiethoxysilane] ?
stdout: 851.09

stdin: I am curious: what mass density value has been reported for CO[Si](C)(C)OC [dimethoxydimethylsilane] ?
stdout: 852.05

stdin: I am curious: what mass density value has been reported for CO[Si](C)(OC)c1ccccc1 [dimethoxymethylphenylsilane] ?
stdout: 996.13

stdin: I am curious: what mass density value has been reported for CCO[Si](C)(C)OCC [dimethyldiethoxysilane] ?
stdout: 830.05

stdin: I am curious: what mass density value has been reported for C=C[Si](OC)(OC)OC [trimethoxy(vinyl)silane] ?
stdout: 960.02

* * *

- Method description: xn = mol fraction of the nth substance listed
- Setup conditions: 318.15 K; 103 kPa; Liquid; Vibrating tube method; x2 = 0.75
± gives the expanded uncertainty stated by the source.
Reported endpoint: mass density

stdin: I am curious: what mass density value has been reported for C=C[Si](OC)(OC)OC [trimethoxy(vinyl)silane] + CO[Si](C)(OC)c1ccccc1 ?
stdout: 974.36 ± 0.41 kg/m3

stdin: I am curious: what mass density value has been reported for C=C[Si](C)(OCC)OCC [methylvinyldiethoxysilane] + CO[Si](C)(OC)c1ccccc1 ?
stdout: 946.57 ± 0.41 kg/m3

stdin: I am curious: what mass density value has been reported for CCO[Si](C)(C)OCC [dimethyldiethoxysilane] + CO[Si](C)(OC)c1ccccc1 ?
stdout: 943.35 ± 0.41 kg/m3

stdin: I am curious: what mass density value has been reported for CO[Si](C)(C)OC [dimethoxydimethylsilane] + CO[Si](C)(OC)c1ccccc1 ?
stdout: 954.48 ± 0.41 kg/m3

* * *

- Method description: refractive index (Na D-line) (dimensionless)
- Setup conditions: 298.15 K; 103 kPa; Liquid; Standard Abbe refractometry
Exercise: state measured refractive index for each of the compounds provided.
Keep the answer to the number alone.

stdin: I am curious: what refractive index value has been reported for CO[Si](C)(OC)c1ccccc1 [dimethoxymethylphenylsilane] ?
stdout: 1.47763

stdin: I am curious: what refractive index value has been reported for C=C[Si](C)(OCC)OCC [methylvinyldiethoxysilane] ?
stdout: 1.39751

stdin: I am curious: what refractive index value has been reported for CCO[Si](C)(C)OCC [dimethyldiethoxysilane] ?
stdout: 1.38045

stdin: I am curious: what refractive index value has been reported for C=C[Si](OC)(OC)OC [trimethoxy(vinyl)silane] ?
stdout: 1.39022

stdin: I am curious: what refractive index value has been reported for CO[Si](C)(C)OC [dimethoxydimethylsilane] ?
stdout: 1.36816

* * *

- Method description: xn = mol fraction of the nth substance listed
- Setup conditions: 313.15 K; 103 kPa; Liquid; Vibrating tube method; x2 = 0.75
Exercise: state measured mass density for each of the molecules provided.
Give the quantity in kg/m3, number only.

stdin: I am curious: what mass density value has been reported for C=C[Si](C)(OCC)OCC [methylvinyldiethoxysilane] + CO[Si](C)(OC)c1ccccc1 ?
stdout: 951.35

stdin: I am curious: what mass density value has been reported for CO[Si](C)(C)OC [dimethoxydimethylsilane] + CO[Si](C)(OC)c1ccccc1 ?
stdout: 959.31

stdin: I am curious: what mass density value has been reported for CCO[Si](C)(C)OCC [dimethyldiethoxysilane] + CO[Si](C)(OC)c1ccccc1 ?
stdout: 948.14

stdin: I am curious: what mass density value has been reported for C=C[Si](OC)(OC)OC [trimethoxy(vinyl)silane] + CO[Si](C)(OC)c1ccccc1 ?
stdout: 979.26

* * *

- Method description: refractive index (Na D-line) (dimensionless); xn = mol fraction of the nth substance listed
- Setup conditions: 313.15 K; 103 kPa; Liquid; Standard Abbe refractometry; x2 = 0.75
Reported endpoint: refractive index
Keep the answer to the number alone.

stdin: I am curious: what refractive index value has been reported for CCO[Si](C)(C)OCC [dimethyldiethoxysilane] + CO[Si](C)(OC)c1ccccc1 ?
stdout: 1.44764

stdin: I am curious: what refractive index value has been reported for C=C[Si](OC)(OC)OC [trimethoxy(vinyl)silane] + CO[Si](C)(OC)c1ccccc1 ?
stdout: 1.45165

stdin: I am curious: what refractive index value has been reported for C=C[Si](C)(OCC)OCC [methylvinyldiethoxysilane] + CO[Si](C)(OC)c1ccccc1 ?
stdout: 1.45086

stdin: I am curious: what refractive index value has been reported for CO[Si](C)(C)OC [dimethoxydimethylsilane] + CO[Si](C)(OC)c1ccccc1 ?
stdout: 1.44913

* * *

Exercise: state measured refractive index for each of the molecules provided.
- Method description: refractive index (Na D-line) (dimensionless)
- Setup conditions: 318.15 K; 103 kPa; Liquid; Standard Abbe refractometry
Keep the answer to the number alone.

stdin: I am curious: what refractive index value has been reported for CCO[Si](C)(C)OCC ?
stdout: 1.37015

stdin: I am curious: what refractive index value has been reported for CO[Si](C)(C)OC ?
stdout: 1.35771

stdin: I am curious: what refractive index value has been reported for C=C[Si](C)(OCC)OCC ?
stdout: 1.38742

stdin: I am curious: what refractive index value has been reported for CO[Si](C)(OC)c1ccccc1 ?
stdout: 1.46825

stdin: I am curious: what refractive index value has been reported for C=C[Si](OC)(OC)OC ?
stdout: 1.38046

* * *

Exercise: state measured mass density for each of the compounds provided.
- Method description: xn = mol fraction of the nth substance listed
- Setup conditions: 303.15 K; 103 kPa; Liquid; Vibrating tube method; x2 = 0.75
Give the quantity in kg/m3, number only.

stdin: I am curious: what mass density value has been reported for CCO[Si](C)(C)OCC [dimethyldiethoxysilane] + CO[Si](C)(OC)c1ccccc1 ?
stdout: 957.72

stdin: I am curious: what mass density value has been reported for C=C[Si](OC)(OC)OC [trimethoxy(vinyl)silane] + CO[Si](C)(OC)c1ccccc1 ?
stdout: 989.02

stdin: I am curious: what mass density value has been reported for CO[Si](C)(C)OC [dimethoxydimethylsilane] + CO[Si](C)(OC)c1ccccc1 ?
stdout: 968.97

stdin: I am curious: what mass density value has been reported for C=C[Si](C)(OCC)OCC [methylvinyldiethoxysilane] + CO[Si](C)(OC)c1ccccc1 ?
stdout: 960.89
